Cited source for all entries: ChEMBL document CHEMBL5126558

# Assay Notes: Half life in rat at 3 mg/kg, iv
# Format: ADME, organism-based
# Measurement Setup: in vivo
Measurement Name: half-life (h)
Give the number; h is assumed, so skip it.

Query string: Give the measured half-life of CNC(=O)c1ccc(-c2ccc(C3(C(=O)N4CC[C@@]5(C4)OC(=O)c4ccccc45)CC3)cc2)cn1 .
Result string: 1.4

---

# Assay Notes: Drug distribution in rat adipose tissue fat to plasma ratio at 15 mg/kg, po and measured after 1 hr
# Assay type: ADME, organism-based
Measurement Name: Kp at 1 h

Query string: Give the measured Kp at 1 h of CNC(=O)c1ccc(-c2ccc(C3(C(=O)N4CC[C@@]5(C4)OC(=O)c4ccccc45)CC3)cc2)cn1 .
Result string: 2.8

---

# Assay Notes: Volume of distribution at steady state in rat at 3 mg/kg, iv
# Assay type: ADME, organism-based
# Measurement Setup: in vivo, read-out: Vdss
Measurement Name: Vd

Query string: Give the measured Vd of CNC(=O)c1ccc(-c2ccc(C3(C(=O)N4CC[C@@]5(C4)OC(=O)c4ccccc45)CC3)cc2)cn1 .
Result string: 1.6 L/kg

---

# Assay Notes: Cmax in rat at 10 mg/kg, po
# Type: ADME, organism-based
# Design: dose 10 mg/kg, route po
# Measurement Setup: in vivo
Measurement Name: Cmax (µM)
Give the number; µM is assumed, so skip it.

Query string: Give the measured Cmax of CNC(=O)c1ccc(-c2ccc(C3(C(=O)N4CC[C@@]5(C4)OC(=O)c4ccccc45)CC3)cc2)cn1 .
Result string: 6.46
